Origin of values: PubChem BioAssay AID1159580

Task for the reader: assign each of the following compounds its reported normalized growth.
- METHOD_NOTES: chemical genetic growth profiling, strain panel (AID 1159580);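 further: tested at 20 µM; growth read once vehicle control cultures reached saturation at 30 °C; 1 = growth at the plate median or of vehicle wells; lower values mean less growth of the strain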
- MEASUREMENT_PARAMETERS: S. cerevisiae deletion strains, growth OD, locus YNR052C, strain pop2, stronger effect = lower value
The whole screen tested about 5,500 compounds, of which about 2,000 (36%) were called active. Inconclusive results (about 18%) are left out. Some of the results follow.
Give bare numbers.

# count of solved cases: 5
>>> observed_result("CNC(=O)O/N=C\\C(C)(C)SC")
0.987
>>> observed_result("C/C=C(/C)C(=O)O[C@@H]1[C@H](OC(C)=O)[C@@]2(CO)C(CC1(C)C)C1=CCC3[C@@]4(C)CC[C@H](O[C@@H]5O[C@H](C(=O)O)[C@@H](O[C@@H]6O[C@H](CO)[C@@H](O)[C@H](O)[C@H]6O)[C@H](O)[C@H]5O[C@@H]5O[C@H](CO)[C@@H](O)[C@H](O)[C@H]5O)[C@](C)(CO)C4CC[C@@]3(C)[C@]1(C)C[C@H]2O (some centres undefined)")
1.02
>>> observed_result("OC(CCN1CCCCC1)(c1ccccc1)C1CCCCC1 (centres undefined)")
1
>>> observed_result("OC(CCN1CCCC1)(c1ccccc1)C1CCCCC1 (centres undefined)")
0.98
>>> observed_result("COc1cc(N)c(Cl)cc1C(=O)NC1CCN(Cc2ccccc2)CC1")
0.993

Take each entry in turn and give its normalized growth.
1. C[C@H]1[C@H](C)CC[C@]2(CO)CC[C@]3(C)C(=CCC4[C@@]5(C)CC[C@H](O)C(C)(C)C5CC[C@]43C)[C@H]12 (some centres undefined)
2. CCC(C)C(NC)C(=O)O (centres undefined)
3. CC(=O)Nc1ccc(OCC(O)CNC(C)C)cc1 (centres undefined)
4. COc1ccc2c(c1)c(CC(=O)OCC(=O)O)c(C)n2C(=O)c1ccc(Cl)cc1

-- reply
1.01
1.01
1.01
1
